Measured values drawn from patent US20230348603A1 for this set.

Target: T1, Human VSIG4-L-His (human, UniProt Q9Y279 20-283)
T1 construct: long isoform ECD with His tag; also called hVSIG4-L
T1 sequence: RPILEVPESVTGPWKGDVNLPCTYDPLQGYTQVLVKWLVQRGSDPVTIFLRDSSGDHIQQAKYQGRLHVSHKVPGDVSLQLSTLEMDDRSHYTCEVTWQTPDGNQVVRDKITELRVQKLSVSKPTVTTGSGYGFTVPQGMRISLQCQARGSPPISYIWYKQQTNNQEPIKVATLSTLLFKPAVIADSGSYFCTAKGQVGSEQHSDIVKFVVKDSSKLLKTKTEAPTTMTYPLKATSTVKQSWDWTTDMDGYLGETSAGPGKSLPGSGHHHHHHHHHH
Assay: BLI (Octet), IgG on AHC sensor, antigen 100 nM
Please respond with reported pKd for every item in the list.
Answers are plain numbers, as −log10 of the molar value.

binder	pKd
14D12 mouse/human chimeric IgG4 (S228P) kappa (antibody, V domains shown) VH: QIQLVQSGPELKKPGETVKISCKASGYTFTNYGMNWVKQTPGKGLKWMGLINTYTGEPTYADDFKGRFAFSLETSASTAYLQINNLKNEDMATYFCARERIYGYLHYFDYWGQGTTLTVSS VL: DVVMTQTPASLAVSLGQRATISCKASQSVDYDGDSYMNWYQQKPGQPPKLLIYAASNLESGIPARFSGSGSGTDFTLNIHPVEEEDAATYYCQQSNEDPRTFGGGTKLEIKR	7.67

Ask | Retrieve pKd measured for 15A06 mouse/human chimeric IgG4 (S228P) kappa (antibody, V domains shown) VH: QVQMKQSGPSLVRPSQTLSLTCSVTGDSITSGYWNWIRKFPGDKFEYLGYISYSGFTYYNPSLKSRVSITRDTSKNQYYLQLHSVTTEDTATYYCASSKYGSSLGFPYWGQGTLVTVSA VL: DVVMTQTPLSLPVSLGDQASISCRSSQSLVHSNGNTYLHWYLQKPGQSPKLLIYKVSNRFSGVPDRFSGSGSGTDFTLKISRVEAEDLGVYFCSQSTHVPFTFGSGTKLEIKR and print it.
Reply | 7.55
